Read-out: Apolipoprotein A-V (APOA5) gene, APOA5 (gene 116519)
Test protocol: LTEA_HepaRG_APOA5: Life Technologies and Expression Analysis (LTEA) Assay for Apolipoprotein A-V (APOA5) gene using HepaRG (AID 2283474)
Condition description: mRNA level, 48 h; actives raise or lower the signal
The source made the active and inactive calls. How the source made its calls: active means hit-call score of the fitted dose curve at least 0.9, where 1 is the maximum; inactive means score below 0.9.
Labels: 1 (active), 0 (inactive)

* CN(C)c1ccc(C(=C2C=CC(=[N+](C)C)C=C2)c2ccc(N(C)C)cc2)cc1 | 1
* CC(C)(C)c1csc(-c2cc3cc(OCc4ccccc4CC(=O)O)ccc3o2)n1 | 1
* CC1=CC(=O)/C(=C(/C)O)C(=O)O1 | 0
* CCCCCCCCCCCC[N+](C)(C)C | 1
* CC/C(=C(/CC)c1ccc(O)cc1)c1ccc(O)cc1 | 1
* NCc1cccc(C2CCN(C(=O)c3ccc(C#Cc4ccccc4F)o3)CC2)c1 | 1
* CC(C)(O)c1ccc(CNC(=O)c2cccnc2Oc2ccc3nonc3c2)cc1 | 0
* Cc1cc2c(cc1C(F)(F)F)N(C(=O)Nc1ccc(Oc3cccnc3C)nc1)CC2 | 1
* OC12N=C(c3ccccc3)SC1Cc1cc(Cl)ccc12 (configuration not stated) | 1
* CC(=O)N1CCN(c2ccc(OC[C@H]3CO[C@](Cn4ccnc4)(c4ccc(Cl)cc4Cl)O3)cc2)CC1 | 1
* CCCCCc1ccc(N)cc1 | 0
* Cc1ccc(C(C)C)cc1 | 0
* c1ccc2n[nH]nc2c1 | 0
* O=C1c2ccccc2C(=O)N1CCc1noc(-c2ccc(CN3CCCCCC3)s2)n1 | 0
* CCCOC(=O)c1cc(O)c(O)c(O)c1 | 0
* O=C(O)c1ccccc1C(=O)OCc1ccccc1 | 0
* OCCO | 0
* CN1C(=O)N(c2ccccc2Br)Cc2cnc(Nc3ccc4c(c3)OCC(CO)O4)nc21 (configuration not stated) | 1
* O=C(O)Cc1cc(I)c(Oc2ccc(O)c(I)c2)c(I)c1 | 1
* O=C(Nc1ccc(Cl)cc1)Nc1ccc(Cl)c(Cl)c1 | 1
* CCN(Cc1cccnc1)C(=O)c1cccc(Cl)c1[C@]1(C)C(=O)N(Cc2ccc(OC)cc2OC)c2ccc(Cl)cc21 | 1
* O=c1c(-c2ccc(O)cc2)coc2cc(O)cc(O)c12 | 0
* CN(C)C(=O)C1(N2CCCCC2)CCN(CC[C@@]2(c3ccc(Cl)c(Cl)c3)CN(C(=O)c3ccccc3)CCO2)CC1 | 0
* CCN(CC)C(=O)c1cc(S(=O)(=O)Cc2ccccc2)c(N2CCC(c3ccccc3)CC2)cc1N(CC)CCN(C)C | 1
* CN(C[C@@H](CC[N+]12CCC(C3CCCCC3)(CC1)CC2)c1ccc(Cl)c(Cl)c1)C(=O)c1cc(C(F)(F)F)cc(C(F)(F)F)c1 | 1
* CCCCOC(=O)CC(CC(=O)OCCCC)(OC(C)=O)C(=O)OCCCC | 0
* COc1cc(C(=O)NC2CCN(C)CC2)ccc1Nc1ncc2c(n1)N(C1CCCC1)CC(F)(F)C(=O)N2C | 1
* CC(O)CC(C)(C)O (configuration not stated) | 0
* CCCCCCCCOC(=O)c1cc(O)c(O)c(O)c1 | 0
* Cc1ccc2oc(CN(Cc3ccccc3)C(=O)Nc3c(F)cc(F)cc3F)c(-c3ccc(Cl)cc3)c2c1 | 1
* CCCCCCCCCCCO | 0
* CCCC(=O)OCCC(C)C | 0
* CCCCCCCCOc1ccc(C(=O)c2ccccc2)c(O)c1 | 0
* O=C1O[C@H]([C@@H](O)CO)C(O)=C1O | 0
* Oc1ccc2ccccc2c1 | 0
* CCO[Si](CCCNC(N)=O)(OCC)OCC | 0
* O=c1[nH]sc2ccccc12 | 0
